pKi: −log10 of the molar value.
Dear all, I have gathered published pKi values for Histamine H3 receptor (Cavia porcellus); the list follows.
Use Fulfilled when the recorded pKi is no lower than 8; use Not fulfilled when it is lower.

COMPOUND	CLASS NAME
CC(C)(C)c1ccc(S(=O)(=O)NCCCCCc2c[nH]cn2)cc1	Fulfilled
CN(C)CCCOc1ccc(CN2CCCCC2)cc1	Not fulfilled

Ask: Reported pKi reaches at least 8 for Clc1cccc(OCCCN2CCC(Cc3cnc[nH]3)CC2)c1 ?
Result: Fulfilled

Ask: Query O=C(CCCCN1CCC(Cc2cnc[nH]2)CC1)Nc1ccc(Cl)cc1 next
Result: Not fulfilled

Ask: Repeat for the following compound: CN(C(=O)CCN1CCC(Cc2cnc[nH]2)CC1)c1ccc(Cl)cc1
Result: Not fulfilled

Ask: And the next one, CC(c1ccncc1)N1CCC(C(=O)N2CCC(n3c(=O)[nH]c4ccccc43)CC2)CC1 (stereo unspecified) ?
Result: Not fulfilled

Ask: Field entry: O=C(CCc1ccc(CN2CCCCC2)cc1)N1CCC(Cc2c[nH]cn2)CC1
Result: Not fulfilled

Ask: Also check CC(C)(C)c1ccc(S(=O)(=O)NCCCc2c[nH]cn2)cc1
Result: Not fulfilled

---

Literature pKi values, system: Histamine H3 receptor (Cavia porcellus).
Sequence (Q9JI35 whole entry): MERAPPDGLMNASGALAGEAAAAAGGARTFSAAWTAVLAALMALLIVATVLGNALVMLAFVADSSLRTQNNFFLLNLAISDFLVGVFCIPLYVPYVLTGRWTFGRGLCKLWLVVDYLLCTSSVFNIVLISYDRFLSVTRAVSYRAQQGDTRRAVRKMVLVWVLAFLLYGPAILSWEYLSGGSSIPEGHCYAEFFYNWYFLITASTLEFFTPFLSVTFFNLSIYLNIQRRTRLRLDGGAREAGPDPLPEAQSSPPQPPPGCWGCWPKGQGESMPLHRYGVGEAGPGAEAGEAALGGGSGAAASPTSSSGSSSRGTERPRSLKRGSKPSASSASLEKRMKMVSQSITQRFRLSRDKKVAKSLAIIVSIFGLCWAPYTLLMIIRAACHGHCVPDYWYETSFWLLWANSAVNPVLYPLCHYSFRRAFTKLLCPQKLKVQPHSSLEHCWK
By convention, pKi is the negative base-10 log of a molar concentration.

Here are 2 compounds together with their reported answers.
MOL SMILES	TARGET SYSTEM	QUANTITATIVE READOUT
c1ncc(-c2ccc(OCCCN3CCC(Cc4cnc[nH]4)CC3)cc2)cn1	Histamine H3 receptor (Cavia porcellus)	8.05
O=C(C1CCN(Cc2ccncc2)CC1)N1CCN(C2CCCCC2)CC1	Histamine H3 receptor (Cavia porcellus)	7.85

Kindly consider the entry below.
Ask: What pKi value was documented for this compound, CC(C)(C)c1ccc(S(=O)(=O)NCCCCc2c[nH]cn2)cc1 ?
Result: 7.78
